Origin of values: PubChem BioAssay (NCI)

Tested on: MDA-MB-435 melanoma
TEST SUMMARY: NCI-60 one-dose screen, 48 h (100 = growth as untreated, 0 = no growth, -100 = all killed)
MEASUREMENT SETUP: 10 µM unless noted
Compounds without any hit were thinned out: in the full panel of roughly 83,000, 20% have a hit.
Threshold rule: growth greater than or equal to 90% is satisfied; below that, not satisfied.

COMPOUND	QUALITATIVE LABEL
CCOC(=O)C1=C(c2ccccc2)N=C2SC=C(c3cccc([N+](=O)[O-])c3)N2C1c1ccc(O)cc1 (stereo not drawn)	satisfied
CC(C)(C)c1ccc(C(=O)Nc2sc3c(c2C#N)CCC(=O)C3)cc1	not satisfied
C=C(C)Cn1c(SCC(=O)c2cccs2)nc2sc3c(c2c1=O)CCCC3	not satisfied
Nc1ccc(N)c2c1C(=O)c1cccc([N+](=O)[O-])c1C2=O	not satisfied
O=C1C(c2c(O)[nH]c3ncccc23)=Nc2ccccc21	satisfied
CC(C)n1cc(C2=C(c3cccc4ccccc34)C(=O)NC2=O)c2cc(Br)ccc21	not satisfied
CNc1nc2ncc(-c3c(C)noc3C)cc2n1Cc1ccccc1	not satisfied
C=C1C(=O)O[C@H]2[C@H]1CC/C(COC(=O)NCc1ccc(Cn3c(=O)sn(CCCC)c3=O)cc1)=C\CC[C@@]1(C)O[C@@H]21	not satisfied
CCOC(=O)c1c(N)sc2cc(O)ccc12	satisfied
C=C(C)[C@@H]1CC[C@]2(COC(=O)c3cccnc3)CC[C@]3(C)[C@H](CC[C@@H]4[C@@]5(C)CCCN(C(=O)c6cccnc6)C(C)(C)[C@@H]5CC[C@]43C)[C@@H]12	not satisfied
O=C1CCC(C(=O)N/N=C/c2ccc([N+](=O)[O-])cc2)N1 (stereo not drawn)	satisfied
O=C(Nc1cccc2c1C(=O)c1cccc(NC(=O)c3ccc(C(=O)Nc4cccc5c4C(=O)c4cccc(NC(=O)c6ccccc6)c4C5=O)cc3)c1C2=O)c1ccccc1	satisfied
CC1(C)CC(=O)C2=C(C1)OC(C(=O)c1ccccc1)C2c1cccc(Oc2ccccc2)c1 (stereo not drawn)	not satisfied
O=C1c2c(c3c4cccnc4[nH]c3c3ccc4ccccc4c23)C(=O)N1O	not satisfied
C=CCn1c(SCC(=O)Nc2ccc(C(=O)/C=C/c3ccc(Cl)cc3)cc2)nnc1-c1ccccc1	not satisfied

====

A collection of compounds and their measured growth
System: SF-539 CNS
TEST SUMMARY: NCI-60 one-dose screen, 48 h (100 = growth as untreated, 0 = no growth, -100 = all killed)
MEASUREMENT SETUP: 10 µM unless noted
Experimental: Cells are grown in 96 well plates and exposed to the test compound for 48 hours. Compounds are tested at a single concentration, which is 10^-5 M for most compounds. The reported endpoint is percent growth (GI% or GIPRCNT), where numbers from 0 - 100% represent growth inhibition, and numbers from -100% - 0 represent cell death. For example, a value of 40 represents 60% growth inhibition. A value of 0 means no net growth occurred over the course of the experiment. […]
This is part of a sample that, as a whole, favours compounds with a hit. Of some 83,000 tested, about 20% had one in any assay. Active and inactive are the calls of the source. How the source made its calls: active means growth percent below 10; inactive means the rest.

COMPOUND	growth
COC(=O)c1nc(-c2ccc(C)cc2)oc1N1CCOCC1	95.9% (inactive)
CCOc1ccc(N2C(=O)CCSC2=S)cc1	94.9% (inactive)
C=CCOC(=O)C1=C(C)N(CC)C(=O)N(CC)C1c1c(Cl)n(C)c2ccccc12 (stereo not given)	88.2% (inactive)
CCCc1cc(CCC)n2nc(N)nc2n1	112% (inactive)
N#CC1=C(N)Oc2c(ccc3cccnc23)C1c1ccccc1 (stereo not given)	-39.6% (active)
COc1cccc(NC(=O)c2sc3nc(C)c(C(=O)c4ccccc4)cc3c2N)c1	86.5% (inactive)
CC1OC(C(=O)N2CCN(CCO)CC2)CC1COC1CCCCC1 (stereo not given)	97.8% [50 µM] (inactive)
CC(C)(C)c1ccc(C(=O)Nc2sc3c(c2C#N)CCC(=O)C3)cc1	-35.6% (active)
CC(C)(C)[C@H](OCc1cn([C@H]2C[C@@H](O)[C@@H](CO)O2)c(=O)[nH]c1=O)c1ccc(C#Cc2ccccc2)cc1[N+](=O)[O-]	97.1% (inactive)
CN1CCN(CC(=O)N(C)c2ccc(N=C(c3ccccc3)c3c(O)[nH]c4ccc([N+](=O)[O-])cc34)cc2)CC1	36.1% (inactive)

====

System: HCT-116 colon
TEST SUMMARY: NCI-60 one-dose screen, 48 h (100 = growth as untreated, 0 = no growth, -100 = all killed)
MEASUREMENT SETUP: 10 µM unless noted
About 83,000 compounds went through this panel and 20% of them were active in at least one assay; those are over-represented in the sample as a whole. Activity calls are given as the source filed them. The calls were made as follows: active = growth percent below 10; inactive = the rest.
A collection of compounds and their measured growth

CHEM SMILES	growth
COc1cc(CNC(=O)CCCC/C=C/C(C)C)ccc1OCc1cn(-c2ccc(C(F)(F)F)cc2)nn1	2.97% (active)
CNC(=O)c1cc(Oc2ccc3nc(NC(=O)c4cc(C(F)(F)F)cc(C(F)(F)F)c4)sc3c2)ccn1	12.4% (inactive)
Nc1nc(=O)n([C@H]2CC=C(CO)O2)cc1F	108% (inactive)
Cc1c(CC(=O)Nc2ccccc2)nnn1-c1ccccc1	106% (inactive)
COc1ccc(NC(=O)c2sc3nc(C)c(C(=O)c4ccccc4)cc3c2N)cc1	108% (inactive)

====

System: HCC-2998 colon
TEST SUMMARY: NCI-60 one-dose screen, 48 h
MEASUREMENT SETUP: 10 µM unless noted
Compounds without any hit were thinned out: in the full panel of roughly 83,000, 20% have a hit. Calls of active or inactive are those of the source. How the source made its calls: active means growth percent below 10; inactive means the rest.
Classes used: label 1 for active, label 0 for inactive

COMPOUND	QUALITATIVE LABEL
CCCCC#Cc1c(I)n(C2OC(CO[Si](C)(C)C(C)(C)C)C3OC(C)(C)OC32)c(=O)[nH]c1=O (stereo not given)	label 1
CNC1=C([N+](=O)[O-])C(c2ccc(OC)cc2)C(C#N)=C(c2ccc[nH]2)O1 (stereo not given)	label 0
CC(C)(C)n1cc(-c2ccnc(NCCNS(=O)(=O)c3ccc(C(F)(F)F)cc3)c2)c(-c2ccccc2)n1	label 0
Cc1c2ccncc2c(C)c2c1c1ccccc1n2CCCCCC(=O)O	label 0
COc1ccc(/C=N/NC(=O)Cn2nnc3ccccc32)cc1	label 0
Cc1cc2nc(C(Cl)Cl)nc(-c3ccccc3)n2n1	label 0
Nc1ncc(-c2ccc3ncnc(N4CCc5cc(F)c(Cl)cc54)c3c2)cc1C(F)(F)F	label 0
CCOC(=O)c1c(C)n2c(=O)cc(C)c3c(OC(C)=O)c(OC(C)=O)cc1c32	label 0
O=C1C(Nc2ccc(Br)cc2)=C(I)C(=O)c2ncccc21	label 0
Nc1nc(N)c2c(n1)NC(c1ccc3c(c1)OCO3)CC(c1cccc(Nc3ccncc3)c1)=N2 (stereo not given)	label 0
CO[C@]12C=C/C(=C(/C(=O)OCc3cccnc3)C(=O)CCCCCCCC[C@]3(OC)C=C/C(=C(/C(=O)OCc4cccnc4)C(=O)CCCCCCCC1)O3)O2	label 1
CCN1C(=O)N(CC)C2C1NN=c1s/c(=C\c3ccc(F)cc3)c(=O)n12 (stereo not given)	label 0
Cc1ccc(Nc2cc(N)nc(N)n2)cc1	label 0
O=C(Nc1ccc(Cl)cc1)C1=NCCCCN1	label 0
COc1cc(CNC(=O)CCCC/C=C/C(C)C)ccc1OCc1cn(-c2cccc([N+](=O)[O-])c2)nn1	label 0
Oc1ccc(Cc2ccc(O)c3ncccc23)c2cccnc12	label 0
CNC(=O)c1cc(Oc2ccc3nc(NC(=O)c4cc(C(F)(F)F)cc(C(F)(F)F)c4)sc3c2)ccn1	label 0
COc1cc(/C=C2\CN(S(=O)(=O)c3ccc(C)cc3)C/C(=C\c3cc(CN4CCCC4)c(O)c(OC)c3)C2=O)cc(CN2CCCC2)c1O	label 1
COc1ccc(CNc2ccc3nc(CCC4CCCCC4)[nH]c3c2)cc1	label 0
c1ccc2c(-c3cnn4cc(-c5ccc(N6CCNCC6)cc5)cnc34)ccnc2c1	label 1
COc1ccc(C2=NN3C(C2)c2cc(Br)ccc2OC3c2ccncc2)cc1 (stereo not given)	label 0
COc1ccc(/C=C\c2cc(OC)c(OC)c(OC)c2)cc1OCC(=O)Nc1nc2ccccc2s1	label 0
C[C@@H]1N=C(c2ccc(Cl)cc2Cl)Nc2nc3ccccn3c2C1=O	label 0
C=C(c1ccc(OC)c(/C=C/C(=O)c2cc(OC)c(OC)c(OC)c2)c1)c1cc(OC)c(OC)c(OC)c1	label 0
CC(=O)c1c(/C=C/c2ccc(C)cc2)c2ccccc2[nH]c1=O	label 0
C1=C2CCCC3=Cc4ccccc4OC23Oc2ccccc21	label 0
CC1OC(C(=O)N2CCN(CCO)CC2)CC1COC1CCCCC1 (stereo not given)	label 0
O=C1c2cccnc2C(=O)c2c1c(C(=O)OCCCN1CCOCC1)c1ccccn21	label 1
CC(=O)Cc1nsc(NC(=O)c2cc(-c3cc(Cl)ccc3Cl)oc2C)n1	label 0
COc1cccc(-c2nn(-c3ccccc3)cc2-c2ccnc(-c3cccnc3)c2)c1	label 0
C=C(C[n+]1ccccc1)[C@@H]1CC[C@]2(C(=O)OC)CC[C@]3(C)[C@H](CC[C@@H]4[C@@]5(C)CCC(=O)C(C)(C)[C@@H]5CC[C@]43C)[C@@H]12	label 0
CS(=O)(=O)Nc1cc(-c2ccc3ncnc(Nc4cccc(Cl)c4)c3c2)cnc1Cl	label 1
CCCCC/C=C/CCC(=O)N[C@H]1[C@H](Oc2c3cc4cc2Oc2ccc(cc2Cl)[C@@H](O[C@@H]2O[C@H](CO)[C@@H](O)[C@H](O)[C@H]2NC(C)=O)[C@@H]2NC(=O)[C@H](NC(=O)[C@@H]4NC(=O)[C@H]4NC(=O)[C@@H](Cc5ccc(c(Cl)c5)O3)NC(=O)[C@@H](N)c3ccc(O)c(c3)Oc3cc(O)cc4c3)c3ccc(O)c(c3)-c3c(O[C@H]4O[C@H](CO)[C@@H](O)[C@H](O)[C@@H]4O)cc(O)cc3[C@H](C(=O)O)NC2=O)O[C@H](CO)[C@H](O)[C@@H]1O	label 0
Cc1ccc2c(n1)C[C@H](C(C)(C)O)CC[C@H]2C	label 0
COc1cc(CNC(=O)CCCC/C=C/C(C)C)ccc1OCc1cn(-c2ccc(C(F)(F)F)cc2)nn1	label 0
